# target_under_test: UniProt:P08172
# protocol: Agonist activity at human muscarinic M2 receptor expressed in CHO cells co-expressing Gqi5 chimeric G-protein assessed as effect on calcium mobilization by FLIPR assay
pEC50: −log10 of the molar value.
property_measured: pEC50

Worked cases, pEC50 given:
# structure_smiles, observed_value
rows = [
    ("CCCO[C@H]1CC[C@](C)(N2CCC(n3c(=O)oc4ccc(S(C)(=O)=O)cc43)CC2)CC1", 6.10),
    ("CCCO[C@H]1CC[C@](C)(N2CCC(n3c(=O)[nH]c4cc(F)c(C)cc43)CC2)CC1", 7.70),
    ("COCCO[C@H]1CC[C@](C)(N2CCC(n3c(=O)oc4ccc(C#N)cc43)CC2)CC1", 5.60),
]

(I) CCO[C@H]1CC[C@](C)(N2CCC(n3c(=O)oc4ccc(C#N)cc43)CC2)CC1
(II) CCO[C@H]1CC[C@](C)(N2CCC(n3c(=O)oc4ccc(OC)cc43)CC2)CC1
Incoming: Could you please tell me which of these two has the higher pEC50: I or II ? Respond with the label that goes with your answer.
Outgoing: II
(II: 6.40, I: 5.60)

(a) COCCO[C@H]1CC[C@](C)(N2CCC(n3c(=O)oc4ccc(C)cc43)CC2)CC1
(b) CO[C@H]1CC[C@](C)(N2CCC(n3c(=O)oc4ccc(C)cc43)CC2)CC1
Incoming: In terms of reported pEC50, does a or b have the smaller number? Respond with the label that goes with your answer.
Outgoing: b

###

# target_under_test: Muscarinic acetylcholine receptor M3 (Homo sapiens)
# Sequence (P20309 whole entry): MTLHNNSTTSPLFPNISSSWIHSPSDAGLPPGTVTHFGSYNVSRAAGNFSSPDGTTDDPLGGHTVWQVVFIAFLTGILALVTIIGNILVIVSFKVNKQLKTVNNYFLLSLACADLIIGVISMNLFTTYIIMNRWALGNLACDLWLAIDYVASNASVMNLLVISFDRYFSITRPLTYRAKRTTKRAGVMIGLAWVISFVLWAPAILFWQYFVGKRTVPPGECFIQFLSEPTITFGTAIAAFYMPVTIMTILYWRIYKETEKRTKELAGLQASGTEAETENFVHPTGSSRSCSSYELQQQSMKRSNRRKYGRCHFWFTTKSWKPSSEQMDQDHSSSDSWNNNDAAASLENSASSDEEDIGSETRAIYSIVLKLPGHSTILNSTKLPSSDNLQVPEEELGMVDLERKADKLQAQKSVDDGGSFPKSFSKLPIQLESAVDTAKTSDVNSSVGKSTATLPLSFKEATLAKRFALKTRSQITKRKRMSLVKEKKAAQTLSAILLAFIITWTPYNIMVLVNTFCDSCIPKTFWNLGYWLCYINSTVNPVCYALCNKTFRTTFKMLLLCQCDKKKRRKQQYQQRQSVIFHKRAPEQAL
# protocol: Agonist activity at human muscarinic M3 receptor expressed in CHO cells assessed as effect on calcium mobilization by FLIPR assay
property_measured: EC50 (µM)

Worked cases, EC50 given:
# structure_smiles, observed_value
rows = [
    ("CO[C@H]1CC[C@](C)(N2CCC(n3c(=O)oc4ccc(C)cc43)CC2)CC1", 2),
    ("CCCO[C@H]1CC[C@](C)(N2CCC(n3c(=O)oc4ccc(S(C)(=O)=O)cc43)CC2)CC1", 3.16),
    ("CCO[C@H]1CC[C@](C)(N2CCC(n3c(=O)oc4cc(F)c(C)cc43)CC2)CC1", 0.794),
    ("CCO[C@H]1CC[C@](C)(N2CCC(n3c(=O)oc4ccc(OC)cc43)CC2)CC1", 1.58),
    ("CO[C@H]1CC[C@](C)(N2CCC(N3C(=O)Cc4ccc(C)cc43)CC2)CC1", 0.316),
]

(I) CCO[C@H]1CC[C@](C)(N2CCC(n3c(=O)oc4c(F)cc(C)cc43)CC2)CC1
(II) CCO[C@H]1CC[C@](C)(N2CCC(n3c(=O)oc4ccc(S(=O)(=O)CC)cc43)CC2)CC1
Incoming: In terms of reported EC50, does I or II have the smaller number? Respond with the label that goes with your answer.
Outgoing: II

###

Listed below: pEC50 values for each entry.
# target_under_test: UniProt P08172
# Sequence (P08172 whole entry): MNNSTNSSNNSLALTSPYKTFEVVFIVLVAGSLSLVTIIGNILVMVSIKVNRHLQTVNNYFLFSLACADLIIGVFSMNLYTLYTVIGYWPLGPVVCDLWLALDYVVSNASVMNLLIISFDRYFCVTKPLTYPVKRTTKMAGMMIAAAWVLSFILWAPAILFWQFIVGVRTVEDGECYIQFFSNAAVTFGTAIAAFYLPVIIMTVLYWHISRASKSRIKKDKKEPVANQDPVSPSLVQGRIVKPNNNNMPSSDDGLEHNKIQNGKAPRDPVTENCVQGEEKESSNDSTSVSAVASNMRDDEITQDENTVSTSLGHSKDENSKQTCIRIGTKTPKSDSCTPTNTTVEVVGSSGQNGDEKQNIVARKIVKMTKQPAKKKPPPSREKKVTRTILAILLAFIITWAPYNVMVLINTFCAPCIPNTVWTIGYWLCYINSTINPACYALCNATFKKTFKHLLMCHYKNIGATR
# protocol: Agonist activity at human muscarinic M2 receptor expressed in CHO cells co-expressing Gqi5 chimeric G-protein assessed as effect on calcium mobilization by FLIPR assay
FYI, pEC50 means -log10 of a concentration in mol per litre.

# structure_smiles, pEC50
data = [
    ("CCO[C@H]1CC[C@](C)(N2CCC(n3c(=O)oc4cc(F)c(C)cc43)CC2)CC1", 6.30),
]

Incoming: # returns recorded pEC50 (system: UniProt P08172) for CCO[C@H]1CC[C@](C)(N2CCC(N3C(=O)Cc4ccc(C)cc43)CC2)CC1
Outgoing: 7.00
